Listing of recorded IC50 by entry.
molecular target: C-C chemokine receptor type 4 (Homo sapiens, UniProt P51679); experiment: Antagonist activity against human recombinant CCR4 expressed in CHO cells assessed as inhibition of human […]-stimulated calcium mobilization
Sequence (P51679 whole entry, looked up): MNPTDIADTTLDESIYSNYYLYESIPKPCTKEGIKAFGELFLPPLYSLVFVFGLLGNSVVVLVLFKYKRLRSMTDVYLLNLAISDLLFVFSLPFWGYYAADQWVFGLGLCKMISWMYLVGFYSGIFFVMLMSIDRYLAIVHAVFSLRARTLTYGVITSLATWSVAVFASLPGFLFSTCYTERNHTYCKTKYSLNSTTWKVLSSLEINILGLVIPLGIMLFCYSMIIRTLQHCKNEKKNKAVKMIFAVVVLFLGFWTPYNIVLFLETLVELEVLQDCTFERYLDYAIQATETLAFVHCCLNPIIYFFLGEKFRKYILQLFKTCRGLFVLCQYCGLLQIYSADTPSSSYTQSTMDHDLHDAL
assay.metric: IC50

>>> result("CCCCN1C(=O)C(CC(C)C)NC(=O)C12CCN(CCCCCCc1ccccc1)CC2 (centres undefined)")
"> 10 µM"
>>> result("CCCN1C(=O)C(CC(C)C)NC(=O)C12CCN(Cc1ccc(Oc3ccccc3)cc1)CC2 (centres undefined)")
"> 30 µM"
>>> result("CCCCN1C(=O)C(CC(C)C)NC(=O)C12CCN(Cc1ccccc1)CC2 (centres undefined)")
"> 30 µM"
>>> result("CCCN1C(=O)[C@H](CC2CCCCC2)NC(=O)C12CCN(CCCCCCc1ccccc1)CC2")
"> 10 µM"
>>> result("CCCN1C(=O)[C@H](CC(C)C)NC(=O)C12CCN(CCCCCCc1ccccc1)CC2")
"> 10 µM"
>>> result("CC(C)C[C@H]1NC(=O)C2(CCN(Cc3ccccc3)CC2)N(Cc2ccccc2)C1=O")
"> 30 µM"
>>> result("CCCN1C(=O)[C@@H](CC2CCCCC2)NC(=O)C12CCN(CCCCCCc1ccccc1)CC2")
"> 10 µM"
>>> result("CCCN1C(=O)[C@@H](CC(C)C)NC(=O)C12CCN(CCCCCCc1ccccc1)CC2")
"> 10 µM"
>>> result("CC(C)C[C@@H]1NC(=O)C2(CCN(Cc3ccccc3)CC2)N(Cc2ccccc2)C1=O")
"> 30 µM"

###

molecular target: C-C chemokine receptor type 5 (Homo sapiens); assay: Antagonist activity against human recombinant CCR5 expressed in CHO cells assessed as inhibition of human MIP-1-alpha-stimulated calcium mobilization; assay type: functional, cell-based
Sequence (P51681 whole entry): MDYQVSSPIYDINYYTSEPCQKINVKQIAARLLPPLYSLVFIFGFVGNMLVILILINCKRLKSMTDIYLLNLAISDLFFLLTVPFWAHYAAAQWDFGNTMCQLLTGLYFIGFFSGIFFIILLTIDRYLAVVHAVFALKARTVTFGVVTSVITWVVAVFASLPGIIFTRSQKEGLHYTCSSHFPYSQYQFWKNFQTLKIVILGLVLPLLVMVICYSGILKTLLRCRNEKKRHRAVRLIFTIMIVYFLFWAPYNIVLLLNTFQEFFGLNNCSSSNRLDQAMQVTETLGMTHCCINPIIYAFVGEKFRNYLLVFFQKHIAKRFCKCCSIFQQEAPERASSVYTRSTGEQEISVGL
assay.metric: IC50 (µM)

>>> numeric_readout("CCCCN1C(=O)C(CC(C)C)NC(=O)C12CCN(Cc1ccccc1)CC2 (stereo not given)")
0.9
>>> numeric_readout("CCCN1C(=O)[C@@H](CC2CCCCC2)NC(=O)C12CCN(CCCCCCc1ccccc1)CC2")
0.27
>>> numeric_readout("CCCN1C(=O)[C@@H](CC(C)C)NC(=O)C12CCN(CCCCCCc1ccccc1)CC2")
3
>>> numeric_readout("CC(C)C[C@H]1NC(=O)C2(CCN(Cc3ccccc3)CC2)N(Cc2ccccc2)C1=O")
7.6
>>> numeric_readout("CCCCN1C(=O)C(CC(C)C)NC(=O)C12CCN(CCCCCCc1ccccc1)CC2 (stereo not given)")
0.27
>>> numeric_readout("CCCN1C(=O)[C@H](CC2CCCCC2)NC(=O)C12CCN(CCCCCCc1ccccc1)CC2")
0.3
>>> numeric_readout("C=CCOc1ccc(CN2CCC3(CC2)C(=O)NC(CC2CCCCC2)C(=O)N3CCCC)cc1 (stereo not given)")
0.05
>>> numeric_readout("CCCCN1C(=O)C(CC(C)C)NC(=O)C12CCN(Cc1ccc(Oc3ccccc3)cc1)CC2 (stereo not given)")
0.12
>>> numeric_readout("CCCCN1C(=O)C(CC2CCCCC2)NC(=O)C12CCN(Cc1ccc(OC)cc1)CC2 (stereo not given)")
0.12
>>> numeric_readout("CCCCN1C(=O)C(CC2CCCCC2)NC(=O)C12CCN(Cc1ccc3c(c1)OCCO3)CC2 (stereo not given)")
0.02
>>> numeric_readout("CCCCN1C(=O)C(CC2CCCCC2)NC(=O)C12CCN(Cc1ccc(Oc3ccccc3)cc1)CC2 (stereo not given)")
0.17
>>> numeric_readout("CCCN1C(=O)C(CC(C)C)NC(=O)C12CCN(Cc1ccc(Oc3ccccc3)cc1)CC2 (stereo not given)")
0.5
>>> numeric_readout("CC(C)C[C@@H]1NC(=O)C2(CCN(Cc3ccccc3)CC2)N(Cc2ccccc2)C1=O")
3.2
>>> numeric_readout("CCCCN1C(=O)C(CC(C)C)NC(=O)C12CCN(Cc1ccc3c(c1)OCCO3)CC2 (stereo not given)")
0.17
>>> numeric_readout("CCCN1C(=O)[C@H](CC(C)C)NC(=O)C12CCN(CCCCCCc1ccccc1)CC2")
2

###

target: C-X-C chemokine receptor type 4 (Homo sapiens, UniProt P61073); assay: Inhibition of radio-isotope labeled SDF1-alpha binding to human recombinant CXCR4
Sequence (P61073 whole entry): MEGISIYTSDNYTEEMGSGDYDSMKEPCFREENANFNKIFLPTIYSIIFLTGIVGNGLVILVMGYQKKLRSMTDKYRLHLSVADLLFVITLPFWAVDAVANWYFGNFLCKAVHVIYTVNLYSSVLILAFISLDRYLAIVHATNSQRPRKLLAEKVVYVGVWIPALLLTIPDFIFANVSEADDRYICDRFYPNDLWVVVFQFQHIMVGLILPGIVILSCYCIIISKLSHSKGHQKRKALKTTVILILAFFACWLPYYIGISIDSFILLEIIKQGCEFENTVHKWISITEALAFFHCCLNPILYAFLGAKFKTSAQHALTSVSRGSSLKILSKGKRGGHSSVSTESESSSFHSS
assay.metric: IC50

>>> result("CCCCN1C(=O)C(CC2CCCCC2)NC(=O)C12CCN(Cc1ccc(OC)cc1)CC2 (stereo unspecified)")
"> 30 µM"
>>> result("CCCCN1C(=O)C(CC2CCCCC2)NC(=O)C12CCN(Cc1ccc3c(c1)OCCO3)CC2 (stereo unspecified)")
"> 10 µM"
>>> result("CCCCN1C(=O)C(CC(C)C)NC(=O)C12CCN(Cc1ccc3c(c1)OCCO3)CC2 (stereo unspecified)")
"> 10 µM"
>>> result("CCCCN1C(=O)C(CC(C)C)NC(=O)C12CCN(CCCCCCc1ccccc1)CC2 (stereo unspecified)")
"> 10 µM"
>>> result("CCCCN1C(=O)C(CC(C)C)NC(=O)C12CCN(Cc1ccc(Oc3ccccc3)cc1)CC2 (stereo unspecified)")
"> 10 µM"
>>> result("CCCCN1C(=O)C(CC(C)C)NC(=O)C12CCN(Cc1ccccc1)CC2 (stereo unspecified)")
"> 10 µM"
>>> result("CCCCN1C(=O)C(CC2CCCCC2)NC(=O)C12CCN(Cc1ccc(Oc3ccccc3)cc1)CC2 (stereo unspecified)")
"> 10 µM"
>>> result("CCCN1C(=O)[C@H](CC2CCCCC2)NC(=O)C12CCN(CCCCCCc1ccccc1)CC2")
"> 10 µM"
>>> result("CCCN1C(=O)C(CC(C)C)NC(=O)C12CCN(Cc1ccc(Oc3ccccc3)cc1)CC2 (stereo unspecified)")
"> 30 µM"
>>> result("C=CCOc1ccc(CN2CCC3(CC2)C(=O)NC(CC2CCCCC2)C(=O)N3CCCC)cc1 (stereo unspecified)")
"> 10 µM"
>>> result("CCCN1C(=O)[C@@H](CC2CCCCC2)NC(=O)C12CCN(CCCCCCc1ccccc1)CC2")
"> 10 µM"

###

molecular target: C-C chemokine receptor type 2 (Homo sapiens); assay: Inhibition of radio-isotope labeled MCP1 binding to human recombinant CCR2
Sequence (P41597 whole entry): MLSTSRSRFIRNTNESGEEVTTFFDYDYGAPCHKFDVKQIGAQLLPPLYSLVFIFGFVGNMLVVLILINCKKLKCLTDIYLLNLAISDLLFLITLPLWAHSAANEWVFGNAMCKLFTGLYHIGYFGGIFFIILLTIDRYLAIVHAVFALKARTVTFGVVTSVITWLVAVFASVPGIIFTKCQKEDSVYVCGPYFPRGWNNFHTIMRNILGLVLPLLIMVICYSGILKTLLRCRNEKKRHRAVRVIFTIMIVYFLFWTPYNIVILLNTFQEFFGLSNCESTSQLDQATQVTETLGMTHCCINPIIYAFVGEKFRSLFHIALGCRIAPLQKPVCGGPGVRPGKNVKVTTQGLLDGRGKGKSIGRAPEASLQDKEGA
pIC50: −log10 of the molar value.
assay.metric: pIC50

>>> result("CCCCN1C(=O)C(CC2CCCCC2)NC(=O)C12CCN(Cc1ccc(Oc3ccccc3)cc1)CC2 (stereo not drawn)")
"< 5.00"
>>> result("CCCN1C(=O)C(CC(C)C)NC(=O)C12CCN(Cc1ccc(Oc3ccccc3)cc1)CC2 (stereo not drawn)")
"< 4.52"
>>> result("CCCCN1C(=O)C(CC(C)C)NC(=O)C12CCN(CCCCCCc1ccccc1)CC2 (stereo not drawn)")
"< 5.00"
>>> result("CCCCN1C(=O)C(CC2CCCCC2)NC(=O)C12CCN(Cc1ccc3c(c1)OCCO3)CC2 (stereo not drawn)")
"< 5.00"
>>> result("C=CCOc1ccc(CN2CCC3(CC2)C(=O)NC(CC2CCCCC2)C(=O)N3CCCC)cc1 (stereo not drawn)")
"< 5.00"
>>> result("CCCCN1C(=O)C(CC2CCCCC2)NC(=O)C12CCN(Cc1ccc(OC)cc1)CC2 (stereo not drawn)")
"< 4.52"
>>> result("CCCCN1C(=O)C(CC(C)C)NC(=O)C12CCN(Cc1ccc3c(c1)OCCO3)CC2 (stereo not drawn)")
"< 5.00"
>>> result("CCCCN1C(=O)C(CC(C)C)NC(=O)C12CCN(Cc1ccc(Oc3ccccc3)cc1)CC2 (stereo not drawn)")
"< 5.00"

###

target: C-C chemokine receptor type 2 (Homo sapiens); test: Antagonist activity against human recombinant CCR2 expressed in CHO cells assessed as inhibition of human MCP1-stimulated calcium mobilization; assay type: functional, cell-based
assay.metric: IC50

>>> result("CC(C)C[C@H]1NC(=O)C2(CCN(Cc3ccccc3)CC2)N(Cc2ccccc2)C1=O")
"> 30 µM"
>>> result("CCCN1C(=O)[C@H](CC(C)C)NC(=O)C12CCN(CCCCCCc1ccccc1)CC2")
"> 10 µM"
>>> result("CC(C)C[C@@H]1NC(=O)C2(CCN(Cc3ccccc3)CC2)N(Cc2ccccc2)C1=O")
"> 30 µM"
>>> result("CCCN1C(=O)[C@@H](CC2CCCCC2)NC(=O)C12CCN(CCCCCCc1ccccc1)CC2")
"> 10 µM"
>>> result("CCCN1C(=O)[C@@H](CC(C)C)NC(=O)C12CCN(CCCCCCc1ccccc1)CC2")
"> 10 µM"
>>> result("CCCCN1C(=O)C(CC(C)C)NC(=O)C12CCN(Cc1ccc(Oc3ccccc3)cc1)CC2 (centres undefined)")
"> 10 µM"
>>> result("CCCCN1C(=O)C(CC2CCCCC2)NC(=O)C12CCN(Cc1ccc(OC)cc1)CC2 (centres undefined)")
"> 30 µM"
>>> result("CCCCN1C(=O)C(CC2CCCCC2)NC(=O)C12CCN(Cc1ccc(Oc3ccccc3)cc1)CC2 (centres undefined)")
"> 10 µM"
>>> result("CCCCN1C(=O)C(CC(C)C)NC(=O)C12CCN(Cc1ccc3c(c1)OCCO3)CC2 (centres undefined)")
"> 10 µM"

Attribution: ChEMBL document CHEMBL1138901
